Where do the numbers come from? From BindingDB's records for doi:10.7270/Q2M32T6M.

molecular target: Solute carrier family 12 member 5 (Homo sapiens, UniProt Q9H2X9); assay: concentration-response of KCC2 transport modulators – cell-based, HEK293 KCC2, FluoZin-2 fluorescence, dose response (AID 1736); conditions: inactive by the depositor's call
Label criterion met when EC50 < 7 µM; otherwise criterion not met.

[[record]]
smiles_structure = "Cc1nc(SCC(=O)N2CCc3ccccc3C2)c2c(C)c(C)sc2n1"
label_class = "criterion not met"


Problem: For the compound `Cc1ccc(C=NNC(=S)Nc2cccc(S(=O)(=O)N(C)C)c2)o1` , is EC50 under 7 µM?
criterion not met

Lab log: compare recorded EC50 with 7 µM; is it strictly lower for `Cc1ccc(S(=O)(=O)NCc2ccc(C(=O)N3CCN(Cc4ccccc4)CC3)cc2)cc1` ?
criterion met

Is 7 µM strictly greater than the compound's reported EC50? compound: `Cc1ccc(N(CC(=O)NCCSc2ccccn2)S(=O)(=O)c2ccc(F)cc2)cc1`
criterion met

Could you please tell me whether EC50 recorded for `O=C(Nc1ccn(Cc2ccccc2)n1)c1cccc(F)c1` is less than 7 µM?
criterion met

----------
Molecular target: Solute carrier family 12 member 5 (Homo sapiens, UniProt Q9H2X9)
Sequence (Q9H2X9 whole entry): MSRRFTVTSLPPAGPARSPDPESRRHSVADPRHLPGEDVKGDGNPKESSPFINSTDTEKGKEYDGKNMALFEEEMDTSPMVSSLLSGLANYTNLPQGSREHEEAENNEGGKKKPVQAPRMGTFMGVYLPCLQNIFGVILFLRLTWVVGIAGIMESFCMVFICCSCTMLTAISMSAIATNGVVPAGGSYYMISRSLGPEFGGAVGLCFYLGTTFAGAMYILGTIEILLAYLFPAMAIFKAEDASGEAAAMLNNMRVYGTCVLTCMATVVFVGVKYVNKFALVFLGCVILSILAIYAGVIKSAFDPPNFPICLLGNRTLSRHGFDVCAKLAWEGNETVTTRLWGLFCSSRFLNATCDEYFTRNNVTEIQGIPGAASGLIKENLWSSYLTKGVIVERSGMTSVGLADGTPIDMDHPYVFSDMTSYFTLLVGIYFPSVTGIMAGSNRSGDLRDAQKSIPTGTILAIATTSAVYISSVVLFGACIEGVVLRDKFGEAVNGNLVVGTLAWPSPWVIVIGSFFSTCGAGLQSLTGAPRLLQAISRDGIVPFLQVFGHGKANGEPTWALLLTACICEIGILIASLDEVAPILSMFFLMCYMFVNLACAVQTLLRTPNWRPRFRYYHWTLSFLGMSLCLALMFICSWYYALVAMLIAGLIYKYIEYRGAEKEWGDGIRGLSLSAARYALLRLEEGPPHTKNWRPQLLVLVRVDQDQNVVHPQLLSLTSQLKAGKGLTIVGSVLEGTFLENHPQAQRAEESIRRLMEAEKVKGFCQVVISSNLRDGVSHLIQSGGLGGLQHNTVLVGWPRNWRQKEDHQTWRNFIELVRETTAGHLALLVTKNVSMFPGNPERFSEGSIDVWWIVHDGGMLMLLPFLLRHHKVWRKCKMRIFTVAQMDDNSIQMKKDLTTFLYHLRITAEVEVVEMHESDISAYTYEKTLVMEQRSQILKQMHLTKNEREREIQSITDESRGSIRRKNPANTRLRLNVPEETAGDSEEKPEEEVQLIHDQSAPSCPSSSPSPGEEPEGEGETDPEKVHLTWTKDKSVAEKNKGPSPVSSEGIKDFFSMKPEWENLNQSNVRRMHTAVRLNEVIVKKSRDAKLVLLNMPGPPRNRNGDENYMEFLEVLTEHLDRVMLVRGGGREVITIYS
Test: concentration-response of KCC2 transport modulators – cell-based, HEK293 KCC2, FluoZin-2 fluorescence, dose response (AID 1736)
Recorded Endpoint: log10 of EC50 (log10 of the value in µM)
In our notation, the value equals log10 of EC50 in µM.

Dear colleague, could you send me log10 of EC50 for each of the items below? Thanks.
1. O=C(Cn1nc(-c2ccccc2)ccc1=O)NCc1ccc2c(c1)OCO2
2. CC1CCCCN1C(=O)CSc1ccc(-c2ccc(F)cc2)nn1 (stereo not given)

1. 0.29
2. 0.58

Batch request: log10 of EC50 for each of the following compounds.
1. O=S(=O)(NC1CCCC1)c1cccc(S(=O)(=O)N2CCC(n3nnc4ccccc43)CC2)c1
2. S=C(NCCc1ccccc1)NN=Cc1cccc(Cl)c1Cl

0.61
1.36

----------
molecular target: Solute carrier family 12 member 5 (Homo sapiens); test: concentration-response of KCC2 transport modulators – cell-based, HEK293 KCC2, FluoZin-2 fluorescence, dose response (AID 1736)
Recorded Endpoint: EC50 (µM)
Answers are plain numbers, in µM.

[[record]]
compound = "O=[N+]([O-])c1cc(-n2c(O)c3c(c2O)CCCC3)ccc1NC1CCN(Cc2ccccc2)CC1"
value_observed = 28.1


// batch mode: one EC50 value per listed entry
1. Cn1c(C(=O)NCCN2CCN(c3ccccc3F)CC2)cc2c(=O)n(C)c3ccccc3c21 [MLS000118132]
2. Sc1nnc(CNc2cccc(Cl)c2)o1

[1.74, 3.77]

List EC50 for every entry below, keeping the order given.
1. Sc1nnc(COc2ccc(Cl)cc2)o1
2. CN(C)S(=O)(=O)c1ccc(Cl)c(C(=O)Nc2nc3ccccc3[nH]2)c1 [SMR000370637]

[3.12, 4.52]

----------
target: Solute carrier family 12 member 5 (Homo sapiens); assay: concentration-response of KCC2 transport modulators – cell-based, HEK293 KCC2, FluoZin-2 fluorescence, dose response (AID 1736); conditions: inactive by the depositor's call
pEC50: −log10 of the molar value.
Classify by measured pEC50: fulfilled if it is equal to or exceeds 5, not fulfilled if it is smaller.

As a guide, the following entries are already answered.
[[record]]
molecule = "O=C(CCc1ccccc1)NC(=S)Nc1cccc(Br)c1 [MLS000583293]"
label_class = "not fulfilled"

[[record]]
molecule = "C=CCN(c1ccc(OC)cc1)S(=O)(=O)c1ccc(Cl)c(C(=O)OCC(=O)NC2CC2)c1"
label_class = "fulfilled"

[[record]]
molecule = "CNC(=O)C(=O)Nc1nc(C23CC4CC(CC(C4)C2)C3)cs1"
label_class = "not fulfilled"

[[record]]
molecule = "COc1cccc(C2c3c(oc4ccc(F)cc4c3=O)C(=O)N2CCCN2CCOCC2)c1 (centres undefined)"
label_class = "not fulfilled"


Threshold query (pEC50 >= 5) on CCOC(=S)N=C(NS(=O)(=O)c1ccc(C)cc1)c1ccccc1 [MLS000579749]
not fulfilled

Could you verify whether the entry `COc1cc(OC)c(C(=O)/C=C/c2ccccc2)c(O)c1O` shows pEC50 of no less than 5?
not fulfilled

----------
Kindly supply the reported pEC50 values for the records listed here.
Target: Solute carrier family 12 member 5 (Homo sapiens)
Sequence (Q9H2X9 whole entry): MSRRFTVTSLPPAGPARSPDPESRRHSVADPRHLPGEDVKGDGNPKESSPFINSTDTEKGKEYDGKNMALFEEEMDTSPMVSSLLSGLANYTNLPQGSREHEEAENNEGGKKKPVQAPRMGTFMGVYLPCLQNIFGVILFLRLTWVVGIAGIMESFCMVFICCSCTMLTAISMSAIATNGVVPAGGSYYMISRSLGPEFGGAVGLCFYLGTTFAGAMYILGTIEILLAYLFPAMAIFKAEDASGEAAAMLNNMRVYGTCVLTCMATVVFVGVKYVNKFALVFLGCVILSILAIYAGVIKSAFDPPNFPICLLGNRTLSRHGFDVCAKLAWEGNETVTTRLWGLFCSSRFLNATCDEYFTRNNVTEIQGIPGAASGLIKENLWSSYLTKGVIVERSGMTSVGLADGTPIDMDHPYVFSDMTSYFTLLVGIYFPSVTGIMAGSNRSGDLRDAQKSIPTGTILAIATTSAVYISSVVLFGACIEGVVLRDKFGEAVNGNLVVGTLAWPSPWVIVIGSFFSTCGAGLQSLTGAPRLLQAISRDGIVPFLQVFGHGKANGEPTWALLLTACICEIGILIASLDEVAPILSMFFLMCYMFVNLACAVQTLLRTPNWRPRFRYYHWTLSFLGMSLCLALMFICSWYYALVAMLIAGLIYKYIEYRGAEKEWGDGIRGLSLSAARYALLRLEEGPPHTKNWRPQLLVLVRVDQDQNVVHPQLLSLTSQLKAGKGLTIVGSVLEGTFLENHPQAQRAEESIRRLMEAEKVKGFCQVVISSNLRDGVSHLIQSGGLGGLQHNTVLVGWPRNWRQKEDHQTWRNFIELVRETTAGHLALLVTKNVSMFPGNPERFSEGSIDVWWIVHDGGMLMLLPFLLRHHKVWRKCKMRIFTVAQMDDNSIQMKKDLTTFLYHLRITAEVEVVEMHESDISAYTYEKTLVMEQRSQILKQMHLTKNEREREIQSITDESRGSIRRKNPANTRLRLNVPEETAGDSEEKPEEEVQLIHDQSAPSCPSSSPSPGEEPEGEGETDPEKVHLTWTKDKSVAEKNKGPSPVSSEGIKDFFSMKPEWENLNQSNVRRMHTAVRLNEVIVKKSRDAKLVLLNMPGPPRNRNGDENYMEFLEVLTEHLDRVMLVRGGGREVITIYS
Assay: concentration-response of KCC2 transport modulators – cell-based, HEK293 KCC2, FluoZin-2 fluorescence, dose response (AID 1736)
Give bare numbers, as −log10 of the molar value.

[[record]]
molecule = "Cc1cccc(Nc2nnc(SCC(=O)c3ccc(Br)s3)s2)c1C"
value_observed = 5.37

[[record]]
molecule = "Oc1ccccc1CN=Nc1nc2ccccc2o1"
value_observed = 3.44

[[record]]
molecule = "N#Cc1nc(-c2cccs2)oc1N1CCN(Cc2ccccc2)CC1"
value_observed = 5.38

[[record]]
molecule = "O=C(CSc1nnc(C2CC2)n1Cc1ccccc1)c1cc2ccccc2o1"
value_observed = 5.41

[[record]]
molecule = "CCOc1ccc(C(CC(=O)O)NC(=O)C(Sc2ccccc2)c2ccccc2)cc1 (stereo not given)"
value_observed = 4.63


Can you give me pEC50 for all of these, one by one?
1. O=C(O)c1cc([N+](=O)[O-])ccc1NCc1ccccc1 [2-(benzylamino)-5-nitro-benzoic acid]
2. O=C(COC(=O)c1cc([N+](=O)[O-])ccc1NCc1ccccc1)NC1CCCCC1
3. CCn1c(CCNC(=O)c2cccs2)nnc1SCC(=O)Nc1nc(-c2ccccc2)cs1 [MLS000548611]
4. Cc1ccc(CSCCNC(=O)c2ccc(C)cc2)cc1
5. O=c1c(-c2cnn(-c3ccccc3)c2)coc2cc(O)ccc12

1. 2.83
2. 6.32
3. 4.72
4. 4.81
5. 5.05
